Experimental target: D(3) dopamine receptor (Homo sapiens, UniProt P35462)
Sequence (P35462 whole entry): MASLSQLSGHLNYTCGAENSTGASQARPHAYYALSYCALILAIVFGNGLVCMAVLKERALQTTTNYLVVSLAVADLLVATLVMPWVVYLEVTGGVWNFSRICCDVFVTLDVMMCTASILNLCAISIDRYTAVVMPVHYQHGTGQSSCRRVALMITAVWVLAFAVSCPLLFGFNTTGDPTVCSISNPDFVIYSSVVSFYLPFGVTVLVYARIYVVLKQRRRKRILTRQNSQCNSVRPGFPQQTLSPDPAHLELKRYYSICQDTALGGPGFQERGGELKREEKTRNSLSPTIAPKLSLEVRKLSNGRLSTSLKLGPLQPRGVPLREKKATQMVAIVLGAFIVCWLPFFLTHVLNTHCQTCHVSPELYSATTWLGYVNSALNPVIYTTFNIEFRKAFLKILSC
Measured endpoint: Ki (nM)
Write the answer as a number in nM, unit excluded.

Short answer on D(3) dopamine receptor (Homo sapiens, UniProt P35462) for "COc1ccccc1N1CCN(CCCCNC(=O)/C=C/c2ccc(F)cc2)CC1" , Ki: 0.34

###

Assay protocol: Displacement of [3H][…] from 5-HT1A receptor in porcine cerebral cortex membranes
Type: cell membranes, Sus scrofa, Membrane
compounds and their reported pKi
// scale note: pKi = -log10(conc_M); give the bare number

N#[11C]c1cccc(N2CCN(CCN3CCC(C(F)(F)F)CC3)C2=O)c1: 7.00

get_value(item= "COc1ccccc1N1CCN(CCCCNC(=O)/C=C/c2ccc(F)cc2)CC1" , readout=pKi) returns 7.55
